Molecular target: HLA-B*18:01
Assay: IEDB peptide-MHC binding, purified MHC/direct/fluorescence; filed as Kd, often an IC50 or EC50 that approximates it; bounds were set here for any values at or beyond the usual limits of such assays
Details: source organism: Dengue virus
measure: pKd
Please note pKd is a logarithmic value: minus log10 of concentration in mol/L. Answer with that number alone.

Documented pKd of GEDGCWYGM : 5.90

---

Biological target: HLA-A*69:01
Assay: IEDB peptide-MHC binding, purified MHC/direct/fluorescence; filed as Kd, often an IC50 or EC50 that approximates it; bounds were set here for any values at or beyond the usual limits of such assays
Conditions: source organism: Haemophilus influenzae
measure: Kd (nM)
I only need the number, in nM, no unit after it.

// recorded Kd for RFEAYGWQV : 337
